system: GCGR-E13; format: cell-based, human; settings: 72 h
No end group written: not given here.
# IC50 per entry
Report the figure in µM without appending any unit label.

# annotated cases, reported IC50 shown
RRRRRQWW-NH2 [Peptide 11] :: 110
RRRRRHQWW-NH2 [Peptide 14] :: 52
RRRRRCQAW-NH2 [Peptide 8] :: 100
RRRRRMQWW-NH2 [Peptide 12] :: 117

Now for a further substance.
INPUT: Entry under review: RRRRRAQWW-NH2 [Peptide 6] . Reported IC50?
OUTPUT: 151

---

Measured IC50, listed per entry.
test system: GCGR-E13; assay type: cell-based, human; details: 72 h
No end group written: not given here.
Write the number in µM without appending the unit.

RRRRRFQWW-NH2 [Peptide 13] :: 52
H-RRRRRCQWW-NH2 [Peptide 2] :: 4.4
RRRRRCAWW-NH2 [Peptide 7] :: 10.6

INPUT: // IC50 lookup, key: RRRRRWWQC-NH2 [Peptide 4]
OUTPUT: 13.1

---

test system: GCGR-E31; format: cell-based, human; conditions: 72 h
pIC50: −log10 of the molar value. No end group written: not given here.
true (1) means recorded pIC50 is 4 or above; false (0) means it is below 4.

Previously resolved entries follow.
RRRRRMQWW-NH2 [Peptide 12] :: true (1)
RRRRRCQW-NH2 [Peptide 10] :: false (0)
RRRRRWWQC-NH2 [Peptide 4] :: true (1)
RRRRRQWW-NH2 [Peptide 11] :: true (1)
RRRRRCAWW-NH2 [Peptide 7] :: true (1)

INPUT: Test whether the substance RRRRRCQAW-NH2 [Peptide 8] records pIC50 of 4 or higher.
OUTPUT: false (0)

INPUT: Given the entry H-RRRRRCQWW-NH2 [Peptide 2] , answer whether its pIC50 meets or surpasses 4.
OUTPUT: true (1)

---

system: GCGR-E34; type: cell-based, human; conditions: 72 h
pIC50: −log10 of the molar value. No end group written: not given here.
Give t when the value for pIC50 is at least 5. Give f when it is less.

RRRRRQWW-NH2 [Peptide 11] :: f
H-RRRRRCQWW-NH2 [Peptide 2] :: t
RRRRRCQWA-NH2 [Peptide 9] :: f
RRRRRFQWW-NH2 [Peptide 13] :: f
RRRRRCQAW-NH2 [Peptide 8] :: f

INPUT: Given the entry RRRRRHQWW-NH2 [Peptide 14] , answer whether its pIC50 meets or surpasses 5.
OUTPUT: f

INPUT: Dear colleague, could you confirm whether RRRRRCQW-NH2 [Peptide 10] has pIC50 at or above 5?
OUTPUT: f

INPUT: Is pIC50 at least 5? Consider RRRRRCAWW-NH2 [Peptide 7]
OUTPUT: t

INPUT: Is reported pIC50 greater than or equal to 5 here: RRRRRMQWW-NH2 [Peptide 12]
OUTPUT: f

---

system: GCGR-E31; type: cell-based, human; details: 72 h
No end group written: not given here.
Readout label: pIC50
Recall that pIC50 is obtained by taking minus log10 of the concentration measured in molar.

RRRRRHQWW-NH2 [Peptide 14] :: 3.91

Lab note: next substance to report on.
INPUT: Sample RRRRRFQWW-NH2 [Peptide 13] — what was its pIC50?
OUTPUT: 4.00

Values were extracted from paper PMC11865978.
